System: SYO-1 tumor spheroids, viability % test/control
Assay: Anticancer human tumor SYO-1 cell line growth inhibition;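 further: spheroids exposed to agents for 7 days before viability read; 100% = DMSO vehicle control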
Conditions: second compound 100 µM; first compound 0.3 µM; active compounds read low; spheroids with HUVEC and MSC

[
  {
    "molecule": "CNCc1ccc(-c2cc(-c3nc(-c4ccc(S(=O)(=O)C(C)C)cc4)cnc3N)on2)cc1 + Cn1nnc2c(C(N)=O)ncn2c1=O",
    "viability, T/C": "1.95%"
  },
  {
    "molecule": "Cn1ncnc1[C@H]1c2n[nH]c(=O)c3cc(F)cc(c23)N[C@@H]1c1ccc(F)cc1 + Cn1nnc2c(C(N)=O)ncn2c1=O",
    "viability, T/C": "2.04%"
  },
  {
    "molecule": "O=C(c1cc(Cc2n[nH]c(=O)c3ccccc23)ccc1F)N1CCN(C(=O)C2CC2)CC1 + Cn1nnc2c(C(N)=O)ncn2c1=O",
    "viability, T/C": "2.69%"
  },
  {
    "molecule": "Cc1sc2c(c1C)C(c1ccc(Cl)cc1)=NC(CC(=O)Nc1ccc(O)cc1)c1nnc(C)n1-2 (centres undefined) + Cn1nnc2c(C(N)=O)ncn2c1=O",
    "viability, T/C": "1.29%"
  }
]

###

System: SYO-1 tumor spheroids, viability % test/control
Experiment: Anticancer human tumor SYO-1 cell line growth inhibition;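 further: spheroids exposed to agents for 7 days before viability read; 100% = DMSO vehicle control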
Conditions: second compound 0.03 µM; first compound 0.0316 µM; active compounds read low; spheroids with HUVEC and MSC
readout: viability, T/C

[
  {
    "compound": "CC(C)n1c(=O)n(C)c2cnc3cc(F)c(-c4ccc(OCCCN5CCCCC5)nc4)cc3c21 + CC[C@@]1(O)C(=O)OCc2c1cc1n(c2=O)Cc2cc3c(CN(C)C)c(O)ccc3nc2-1",
    "measured value": "2.53%"
  },
  {
    "compound": "COc1ccc([C@@H](O)c2cc(-c3ncnc4cc(N5CCOCC5)ccc34)c(F)cc2Cl)nn1 + CC[C@@]1(O)C(=O)OCc2c1cc1n(c2=O)Cc2cc3c(CN(C)C)c(O)ccc3nc2-1",
    "measured value": "1.67%"
  },
  {
    "compound": "CC1COCCN1c1cc(-c2ccnn2C)c2ccnc(-c3ccn[nH]3)c2n1 (stereo unspecified) + CC[C@@]1(O)C(=O)OCc2c1cc1n(c2=O)Cc2cc3c(CN(C)C)c(O)ccc3nc2-1",
    "measured value": "1.75%"
  },
  {
    "compound": "Cc1cc(C)c(CNC(=O)c2cc(-c3ccc(CN4CCOCC4)cc3)cc3c2cnn3C2CCCC2)c(=O)[nH]1 + CC[C@@]1(O)C(=O)OCc2c1cc1n(c2=O)Cc2cc3c(CN(C)C)c(O)ccc3nc2-1",
    "measured value": "1.69%"
  },
  {
    "compound": "[2H]c1nc(C)nc([2H])c1-c1cc(NC[C@@H](C)c2cccc3c(C(=O)NC)ccnc23)ncn1 + CC[C@@]1(O)C(=O)OCc2c1cc1n(c2=O)Cc2cc3c(CN(C)C)c(O)ccc3nc2-1",
    "measured value": "1.86%"
  },
  {
    "compound": "COc1cc(C)[nH]c(=O)c1CN1CCc2c(Cl)cc(C(OC)C3COC3)c(Cl)c2C1=O (stereo unspecified) + CC[C@@]1(O)C(=O)OCc2c1cc1n(c2=O)Cc2cc3c(CN(C)C)c(O)ccc3nc2-1",
    "measured value": "1.81%"
  }
]
